IC50 values for IRAK4 (Homo sapiens (Human)) compiled from several publications are listed below.

INSERT INTO results (smiles_representation, quantity_measured, result) VALUES
  ('Cn1cc(-c2cccc(-c3ncc(-c4ccn(C)n4)c(NCCN4CCS(=O)(=O)CC4)n3)c2)cn1', 'IC50', '0.1 to 1 µM'),
  ('CN(C)C1CCN(C(=O)CCCc2cn(-c3ccccc3)c(NC(=O)c3cccc(-c4ccc5ncsc5c4)c3)n2)CC1', 'IC50', '< 0.05 µM');

// query Any idea what IC50 came out for CC(=O)c1cccc(-c2cc(N(C)C(=O)OC(C)(C)C)c3cnn(-c4cccc(C)n4)c3c2)n1 on IRAK4 (Homo sapiens (Human))?
// result 1 to 10 µM

// query What reported IC50 corresponds to CC(C)OC(=O)CCCc1cn(-c2ccccc2)c(NC(=O)c2cccc(-c3cn[nH]c3)c2)n1 on IRAK4 (Homo sapiens (Human))?
// result < 0.05 µM

// query Entry O=C1Nc2nc3ccccc3n2Cc2ccc(F)c(c2)-c2ccc(=O)n(n2)Cc2cccc1c2 , system IRAK4 (Homo sapiens (Human)): what IC50 was measured?
// result 0.1 to 1 µM

// query Observed IC50 on IRAK4 (Homo sapiens (Human)) for N#Cc1cccc(-n2ncc3ccc(-c4cncc(N)c4)cc32)n1 , please.
// result < 0.1 µM

// query Request body: readout IC50, system IRAK4 (Homo sapiens (Human)), query CN(C)[C@H]1CC[C@H](Oc2ncnc3sc4c(c23)CN(C(=O)CCO)CC4)CC1 . Return the value.
// result 5 to 20 µM

// query Write down the reported IC50 of O=C(Nc1nc(CCCCCCN2CCOCC2)cn1-c1ccccc1)c1cccc(-c2ccc3[nH]ncc3c2)c1 , test system: IRAK4 (Homo sapiens (Human)).
// result < 0.05 µM

// query // map CN(C)[C@H]1CC[C@H](Nc2ncnc3sc4c(c23)CC(C)(C)OC4)CC1 to recorded IC50 (system: IRAK4 (Homo sapiens (Human)))
// result < 5 µM

* * *

// note: IC50 values for UniProt:Q9NWZ3 were reported in different studies

INSERT INTO measurements (compound, quantity_measured, result) VALUES
  ('Cn1cc(-c2cccc(-c3ncc(-c4cnn(C)c4)c(NC4CCCC4)n3)c2)cn1', 'IC50', '< 100 nM');

// query Quick check: IC50 on UniProt:Q9NWZ3, item CC1(C)OC(=O)c2ccc(Nc3ncc(C(=O)NN)c(N[C@H](CO)c4ccccc4)n3)cc21 ?
// result 250 to 1000 nM

// query Entry CCC[C@H](N)c1cccc(-c2cc(C#CC(C)(C)O)c3cnn(-c4cccc(CO)n4)c3c2)n1 , system UniProt:Q9NWZ3: what IC50 was measured?
// result 1000 to 10000 nM

* * *

// merged dataset of IC50 values, system = IRAK4 (Homo sapiens (Human), UniProt Q9NWZ3), multiple refs

INSERT INTO measurements (compound, measurement_target, result) VALUES
  ('Cn1cc(-c2cccc(-c3ncc(-c4cnn(C)c4)c(NCCN4CCOCC4)n3)c2)cn1', 'IRAK4 (Homo sapiens (Human), UniProt Q9NWZ3)', '100 to 1000 nM'),
  ('CCOC(=O)C1CCc2sc3ncnc(N[C@H]4CC[C@H](N)CC4)c3c21 (stereo partly shown)', 'IRAK4 (Homo sapiens (Human), UniProt Q9NWZ3)', '20000 to 50000 nM'),
  ('CC(C)Nc1cc(-n2ncc3cnc(N)nc32)ncc1-n1cc(CCC(C)(C)O)nn1', 'IRAK4 (Homo sapiens (Human), UniProt Q9NWZ3)', '6 nM');

// query Name the reported IC50 value associated with the compound Cn1cc(-n2ccc3nc(Nc4cnn(-c5ccncc5)c4)nc(O[C@H]4CCOC4)c32)cn1
// result ≤ 100 nM

* * *

pIC50: −log10 of the molar value.
Let's look at some pIC50 data for IRAK4 (Homo sapiens (Human), UniProt Q9NWZ3) that I collected from the literature.

INSERT INTO assay_data (compound, quantity_measured, result) VALUES
  ('O=C(Nc1nc(CCC(=O)N2CCCC[C@@H]2C(F)(F)F)cn1-c1ccccc1)c1cccc(-c2cn[nH]c2)c1', 'pIC50', '7.00 to 7.30'),
  ('Cc1cc(=O)n2nc1-c1cccc(c1)Cn1c(nc3ccccc31)NC(=O)c1cccc(c1)C2', 'pIC50', '6.00 to 7.00'),
  ('Cn1cc(-n2ccc3nc(Nc4cc(C(=O)NC5CCOCC5)cs4)nc(O[C@H]4CCOC4)c32)cn1', 'pIC50', '≥ 7.00');

// query Value wanted: pIC50 (IRAK4 (Homo sapiens (Human), UniProt Q9NWZ3)) of entry Cc1cc(Nc2nc(N[C@H]3CC[C@H](O)CC3)c3c(ccn3-c3ccc(F)cc3)n2)sn1
// result 6.00 to 7.00

* * *

Here is a set of compounds with reported pIC50 for IRAK4 (Homo sapiens (Human), UniProt Q9NWZ3), compiled from the literature.
Kindly note that pIC50 refers to -log10 of the concentration in mol/L and answer with the value alone.

// query Give IRAK4 (Homo sapiens (Human), UniProt Q9NWZ3) pIC50 for COC(C)(C)[C@H]1CC[C@H](NC(=O)c2cnc(-c3cnc4cc(C#N)cnn34)cc2NC(C)C)CC1
// result 8.40

// query Find pIC50 (IRAK4 (Homo sapiens (Human), UniProt Q9NWZ3)) for the entry COc1cc2nn([C@H]3CC[C@H](CN4CCC5(CC4)CCN(C(=O)c4ccc(Cl)c(N6CCC(=O)NC6=O)c4)CC5)CC3)cc2cc1NC(=O)c1cccc(C(F)(F)F)n1
// result 8.14

// query Lab note: need pIC50 with IRAK4 (Homo sapiens (Human), UniProt Q9NWZ3) for entry CC(=O)N1CCC(N2CC(n3cc(NC(=O)c4cccc(-c5cnn(C6(C#N)CC6)c5)n4)c(C(F)F)n3)C2)CC1 , please look it up.
// result 8.60

* * *

A compilation of pIC50 values for IRAK4 (Homo sapiens (Human), UniProt Q9NWZ3) from the published literature.
pIC50: −log10 of the molar value.

Guide cases for pIC50, answers given:
INSERT INTO assay_data (compound, result) VALUES
  ('C[C@H](N)c1cccc(-c2cc(OCCCO)c3cnn(-c4cccc(CO)n4)c3c2)n1', '> 7.00'),
  ('COc1cccc(Nc2nc(N[C@H]3CC[C@H](N4CCOCC4)CC3)c3c4c(sc3n2)CCC4)c1', '≥ 5.30'),
  ('COC(=O)NCC1CC(Nc2cc(-c3ccc4cc(C#N)cnn34)ncc2-c2cn(CC3CC(O)C3)nn2)C1 (centres unmarked)', '> 9.00'),
  ('c1cnc2[nH]cc(-c3ccncc3)c2c1', '≥ 5.00');

// query # lookup: pIC50 of Cn1cc(-c2cccc(-c3ncc(-c4cnn(C)c4)c(N[C@H]4CCC[C@H](F)[C@H]4O)n3)c2)cn1 (single isomer, unassigned)
// result > 7.00

* * *

Collected IC50 for IRAK4 (Homo sapiens (Human), UniProt Q9NWZ3) across several studies; compounds listed below.

INSERT INTO assay_data (smiles_representation, quantity_measured, result) VALUES
  ('CCN[C@H]1CC[C@H](Oc2ncnc3sc4c(c23)[C@@H](C[C@H](O)C(N)=O)CC4)CC1', 'IC50', '< 5000 nM'),
  ('Cc1cc(Nc2nc(OCc3ccccn3)c3c(ccn3-c3cnn(C)c3)n2)sn1', 'IC50', '100 to 1000 nM'),
  ('C[C@H](N)c1cccc(-c2cc(-c3nc(C(F)(F)F)co3)c3cnn(-c4cccc(CO)n4)c3c2)n1', 'IC50', '< 100 nM');

// query Reported IC50 for C=CC(=O)N1C[C@@H](c2nc(-c3ccc(NC(=O)c4cccc(-c5ccn[nH]5)n4)cc3)no2)C[C@@H](C(F)(F)F)C1 : what is it?
// result > 10000 nM

* * *

pIC50: −log10 of the molar value.
Collected set of pIC50 measured with IRAK4 (Homo sapiens (Human), UniProt Q9NWZ3) across studies.

Use the examples below as a reference point.
INSERT INTO assay_data (smiles_representation, quantity_measured, result) VALUES
  ('Cn1cc(-c2cccc(-c3ncc(-c4ccn(C)n4)c(N[C@H]4CC[C@H](O)CC4)n3)c2)cn1', 'pIC50', '> 7.00'),
  ('CC1(C)OC(=O)c2ccc(Nc3ncc(C(=O)NCCCN4CCOCC4)c(N[C@H](CO)c4ccccc4)n3)cc21', 'pIC50', '6.00 to 6.60'),
  ('CCC[C@H](N)c1cccc(-c2cc(NCC)c3cnn(-c4cccc(CO)n4)c3c2)n1', 'pIC50', '> 7.00'),
  ('Cn1cc(-c2cccc(C(=O)Nc3nc(CCC(=O)N4CCNCC4)cn3-c3ccccc3)c2)cn1', 'pIC50', '7.00 to 7.30');

Switching to the query record.
// query pIC50 for CC1(C)CCN([C@H]2CC[C@H](Nc3ncnc4ccc(C#N)cc34)CC2)CC1 ?
// result ≥ 5.30
